- system: Prostaglandin G/H synthase 1 (Ovis aries)
- procedure details: Inhibition of ovine COX-1 assessed as residual activity by measuring formation of 12-HHT from arachidonic acid at 10 uM by HPLC analysis
property label: Activity (%)

Qu. Report Activity for CCCC/C(=C\c1cc(OCCc2ccccc2)ccc1OCCc1ccccc1)C(=O)O please.
Ans. 68

Qu. Report Activity for CCCCC(Sc1cc(OCCc2ccccc2)cc(OCCc2ccccc2)c1)C(=O)O (stereo not given) please.
Ans. 71.3

Qu. Report Activity for CCCCC(Cc1ccc(OCCc2ccccc2)c(OCCC2CCCCC2)c1)C(=O)O (stereo not given) please.
Ans. 82

Qu. Report Activity for CCCCC(Cc1cccc(OCCc2ccccc2)c1OCCc1ccccc1)C(=O)O (stereo not given) please.
Ans. 66.1

Qu. Report Activity for CCCCC(Cc1ccc(OCCc2ccccc2)cc1OCCc1ccccc1)C(=O)O (stereo not given) please.
Ans. 99.1

Qu. Report Activity for CCCCC(Cc1ccc(OCCC2CCCCC2)c(OCCC2CCCCC2)c1)C(=O)O (stereo not given) please.
Ans. 73.8

Qu. Report Activity for CCCCC(Cc1cc(OCCc2ccccc2)ccc1OCCc1ccccc1)C(=O)O (stereo not given) please.
Ans. 63.8

Qu. Report Activity for CCCCC(Cc1ccc(OCCC2CCCCC2)c(OCCc2ccccc2)c1)C(=O)O (stereo not given) please.
Ans. 69.1

Qu. Report Activity for CCCC/C(=C\c1cc(OCCC2CCCCC2)ccc1OCc1ccc(C(F)(F)F)cc1)C(=O)O please.
Ans. 92.3

Qu. Report Activity for CCCC/C(=C\c1cc(OCc2ccc(C(F)(F)F)cc2)ccc1OCc1ccc(C(F)(F)F)cc1)C(=O)O please.
Ans. 82.6

----------
- system: Peroxisome proliferator-activated receptor alpha (Homo sapiens)
- Sequence (whole entry): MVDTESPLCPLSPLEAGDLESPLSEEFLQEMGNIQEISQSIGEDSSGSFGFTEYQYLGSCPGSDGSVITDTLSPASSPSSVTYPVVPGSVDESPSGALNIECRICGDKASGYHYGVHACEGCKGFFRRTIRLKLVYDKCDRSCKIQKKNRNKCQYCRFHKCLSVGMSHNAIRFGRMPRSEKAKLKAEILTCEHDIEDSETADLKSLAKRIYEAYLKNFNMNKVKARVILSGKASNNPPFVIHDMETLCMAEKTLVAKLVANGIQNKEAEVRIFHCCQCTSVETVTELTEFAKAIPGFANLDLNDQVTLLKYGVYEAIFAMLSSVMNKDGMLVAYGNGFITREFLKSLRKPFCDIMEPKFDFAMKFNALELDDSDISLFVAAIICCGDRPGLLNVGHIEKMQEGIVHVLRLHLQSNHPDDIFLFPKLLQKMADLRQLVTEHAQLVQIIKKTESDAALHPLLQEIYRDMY
- procedure details: Modulation of human PPARalpha-LBD expressed in african green monkey COS7 cells co-transfected with Gal4 assessed as activation of transactivation activity at 10 uM by luciferase assay
- Assay type: cell-based
- cond: COS-7
Active and inactive are the calls of the source. The calls are words filed in the database; no cut-off is given here.
property label: Activity

Qu. Report Activity for CCCCC(Cc1ccc(OCCc2ccccc2)c(OCCc2ccccc2)c1)C(=O)O (stereo unspecified) please.
Ans. inactive

Qu. Report Activity for CCCCC(Cc1ccc(OCCC2CCCCC2)c(OCCC2CCCCC2)c1)C(=O)O (stereo unspecified) please.
Ans. inactive

Qu. Report Activity for CCCC/C(=C\c1cc(OCCc2ccccc2)cc(OCCc2ccccc2)c1)C(=O)O please.
Ans. inactive

Qu. Report Activity for CCCCC(Sc1cc(OCCc2ccccc2)cc(OCCc2ccccc2)c1)C(=O)O (stereo unspecified) please.
Ans. inactive

Qu. Report Activity for CCCC/C(=C\c1cc(OCCC2CCCCC2)ccc1OCc1ccc(C(F)(F)F)cc1)C(=O)O please.
Ans. inactive

Others:
Qu. Report Activity for CCCCC(Cc1ccc(OCCC2CCCCC2)c(OCCc2ccccc2)c1)C(=O)O (stereo unspecified) please.
Ans. inactive

Qu. Report Activity for CCCC/C(=C\c1cc(OCCC2CCCCC2)ccc1OCCC1CCCCC1)C(=O)O please.
Ans. inactive

Qu. Report Activity for CCCC/C(=C\c1cc(OCCc2ccc(C(F)(F)F)cc2)ccc1OCCc1ccc(C(F)(F)F)cc1)C(=O)O please.
Ans. inactive

----------
- system: Prostaglandin G/H synthase 2 (Homo sapiens)
- procedure details: Inhibition of human recombinant COX-2 assessed as residual activity by measuring formation of 12-HHT from arachidonic acid at 10 uM by HPLC analysis
property label: Activity (%)

Qu. Report Activity for CCCCC(Cc1cccc(OCCc2ccccc2)c1OCCc1ccccc1)C(=O)O (centres undefined) please.
Ans. 89.6

Qu. Report Activity for CCCC/C(=C\c1cc(OCCc2ccccc2)cc(OCCc2ccccc2)c1)C(=O)O please.
Ans. 81.4

Qu. Report Activity for CCCC/C(=C\c1cc(OCCC2CCCCC2)ccc1OCc1ccc(C(F)(F)F)cc1)C(=O)O please.
Ans. 106

Qu. Report Activity for CCCCC(Cc1ccc(OCCc2ccccc2)c(OCCc2ccccc2)c1)C(=O)O (centres undefined) please.
Ans. 86.4

Qu. Report Activity for CCCCC(Cc1ccc(OCCc2ccccc2)cc1OCCc1ccccc1)C(=O)O (centres undefined) please.
Ans. 110

Qu. Report Activity for CCCC/C(=C\c1cc(OCCc2ccc(C(F)(F)F)cc2)ccc1OCCc1ccc(C(F)(F)F)cc1)C(=O)O please.
Ans. 102

Qu. Report Activity for CCCCC(Sc1cc(OCCc2ccccc2)cc(OCCc2ccccc2)c1)C(=O)O (centres undefined) please.
Ans. 110

Qu. Report Activity for CCCCC(Cc1ccc(OCCC2CCCCC2)c(OCCc2ccccc2)c1)C(=O)O (centres undefined) please.
Ans. 91.5

Qu. Report Activity for CCCC/C(=C\c1cc(OCCc2ccccc2)ccc1OCCc1ccccc1)C(=O)O please.
Ans. 94.4

----------
- system: Peroxisome proliferator-activated receptor alpha (Homo sapiens)
- Sequence (whole entry): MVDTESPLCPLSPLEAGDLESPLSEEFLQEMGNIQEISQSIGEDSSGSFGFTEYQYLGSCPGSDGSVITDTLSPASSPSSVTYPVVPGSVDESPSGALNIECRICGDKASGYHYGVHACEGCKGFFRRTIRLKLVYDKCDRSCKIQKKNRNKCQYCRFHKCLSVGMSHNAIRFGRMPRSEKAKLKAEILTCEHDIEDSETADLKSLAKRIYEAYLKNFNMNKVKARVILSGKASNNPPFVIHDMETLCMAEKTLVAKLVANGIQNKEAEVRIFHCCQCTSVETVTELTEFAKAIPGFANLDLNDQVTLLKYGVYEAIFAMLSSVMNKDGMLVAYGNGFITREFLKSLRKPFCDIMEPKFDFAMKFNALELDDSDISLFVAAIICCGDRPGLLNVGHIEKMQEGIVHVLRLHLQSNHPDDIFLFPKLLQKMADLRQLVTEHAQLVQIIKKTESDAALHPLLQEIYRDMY
- procedure details: Modulation of human PPARalpha-LBD expressed in african green monkey COS7 cells co-transfected with Gal4 assessed as activation of transactivation activity at 10 uM by luciferase assay
- Assay type: cell-based
- cond: COS-7
Calls of active or inactive are those of the source. No cut-off for these calls is given here.
property label: Activity

// known answers, use as guide
Qu. Under Peroxisome proliferator-activated receptor alpha (Homo sapiens): Activity value of CCCCC(Cc1cc(OCCc2ccccc2)ccc1OCCc1ccccc1)C(=O)O (stereo not drawn) ?
Ans. inactive

Qu. Under Peroxisome proliferator-activated receptor alpha (Homo sapiens): Activity value of CCCCC(Oc1cc(OCCc2ccccc2)cc(OCCc2ccccc2)c1)C(=O)O (stereo not drawn) ?
Ans. inactive

Qu. Under Peroxisome proliferator-activated receptor alpha (Homo sapiens): Activity value of CCCCC(Cc1ccc(OCCc2ccccc2)c(OCCC2CCCCC2)c1)C(=O)O (stereo not drawn) ?
Ans. inactive

Qu. Under Peroxisome proliferator-activated receptor alpha (Homo sapiens): Activity value of CCCC/C(=C\c1cc(OCCc2ccccc2)ccc1OCCc1ccccc1)C(=O)O ?
Ans. inactive

Others:
Qu. Under Peroxisome proliferator-activated receptor alpha (Homo sapiens): Activity value of CCCCC(Cc1ccc(OCCc2ccccc2)cc1OCCc1ccccc1)C(=O)O (stereo not drawn) ?
Ans. inactive

Qu. Under Peroxisome proliferator-activated receptor alpha (Homo sapiens): Activity value of CCCCC(Cc1cccc(OCCc2ccccc2)c1OCCc1ccccc1)C(=O)O (stereo not drawn) ?
Ans. inactive

Qu. Under Peroxisome proliferator-activated receptor alpha (Homo sapiens): Activity value of CCCC/C(=C\c1cc(OCc2ccc(C(F)(F)F)cc2)ccc1OCc1ccc(C(F)(F)F)cc1)C(=O)O ?
Ans. inactive

Qu. Under Peroxisome proliferator-activated receptor alpha (Homo sapiens): Activity value of CCCCC(Cc1cc(OCCc2ccccc2)cc(OCCc2ccccc2)c1)C(=O)O (stereo not drawn) ?
Ans. inactive

Values were extracted from ChEMBL document CHEMBL1817621.
